Test system: K562
ASSAY_PROTOCOL: NCI tumour cell line growth inhibition, 48 h
Screen size: about 56,000 sequences; about 5,400 (9.6%) were called active. This is one part of a sample in which actives are shown more often than they occur. Measured potencies and affinities stand elsewhere.
MEASURED_ENDPOINT: GI50
# output: number + unit

| SUBSTANCE | GI50 |
| --- | --- |
| CISPLATIN, CHEMBL11359 | 5.56 µM |
| [Bis(aminomethyl)tetramethylenesilane]tetrachloropaltinum(IV), CHEMBL2146189 | 2.57 µM |
| [Bis(aminomethyl)dimethylsilane]dichloroplatinum (II), CHEMBL2146201 | 16.5 µM |
| [Bis(aminomethyl)dimethylsilane]tetrachloroplatinum(IV), CHEMBL2146190 | 3.78 µM |

Would you mind listing GI50 for each of the following substances?
1. [Bis(aminomethyl)diethylsilane]tetrachloroplatinum(IV), CHEMBL2146203
2. CHLOROTRIPHENYLSTANNANE, CHEMBL515580
3. [Bis(aminomethyl)tetramethylenesilane]dichloropaltinum(II), CHEMBL2146205
4. [Bis(aminomethyl)pentamethylenesilane]tetrachloropaltinum(IV), CHEMBL2146204

Given back:
0.916 µM
0.0256 µM
10.2 µM
1.79 µM
